# Run description: Tmax in patient with kidney disease at 300 mg, po
# Type: ADME, organism-based
# Condition context: human, in vivo

Molecule	Readout unit	Tmax
CCN(CC)CCCC(C)Nc1ccnc2cc(Cl)ccc12 (stereo unspecified)	h	6.6

---

# Run description: Cmax in patient with bronchitis at 500 mg, po twice daily for 3 days
# Condition context: human, in vivo
Property measured: Cmax at 72 h

Compound	Result value
O=C(O)c1cn(C2CC2)c2cc(N3CCNCC3)c(F)cc2c1=O [CIPROFLOXACIN]	7.6 µM

---

# Run description: Cmax in human at 1000 mg, po once daily for 3 days
# Type: ADME, organism-based
# Set-up: dose 1000 mg, route oral
# Condition context: in vivo

Mol	Cmax / nM
CC[C@H]1OC(=O)[C@H](C)[C@@H](O[C@H]2C[C@@](C)(OC)[C@@H](O)[C@H](C)O2)[C@H](C)[C@@H](O[C@@H]2O[C@H](C)C[C@H](N(C)C)[C@H]2O)[C@](C)(O)C[C@@H](C)CN(C)[C@H](C)[C@@H](O)[C@]1(C)O	1100

---

# Run description: Tmax in patient with tuberculosis at 600 mg, po once daily for 15 to 18 days
# Assay type: ADME, organism-based
# Condition context: human, in vivo
Property measured: Tmax (h)

Molecule	Result value
C[C@H]1c2cccc(O)c2C(=O)C2=C(O)[C@]3(O)C(=O)C(C(N)=O)=C(O)[C@@H](N(C)C)[C@@H]3[C@@H](O)[C@@H]21.O [DOXYCYCLINE]	2

---

The entries below come with measured pIC50 values attached.
# Test system: Plasmodium falciparum
# Run description: Antimalarial activity as 2nd generation ring-stage chloroquine-sensitive Plasmodium falciparum 3D7 after 48 hrs by flow cytometry
# Format: functional, organism-based
# Condition context: 3D7, 48 h
pIC50: −log10 of the molar value.

Mol	Result modifier	pIC50
CC[C@H]1OC(=O)[C@H](C)[C@@H](O[C@H]2C[C@@](C)(OC)[C@@H](O)[C@H](C)O2)[C@H](C)[C@@H](O[C@@H]2O[C@H](C)C[C@H](N(C)C)[C@H]2O)[C@](C)(O)C[C@@H](C)CN(C)[C@H](C)[C@@H](O)[C@]1(C)O	=	5.06
CCC[C@@H]1C[C@@H](C(=O)N[C@@H]([C@H]2O[C@H](SC)[C@H](O)[C@@H](O)[C@H]2O)[C@H](C)Cl)N(C)C1	<	4.00
O=C(O)c1cn(C2CC2)c2cc(N3CCNCC3)c(F)cc2c1=O	=	5.03
C[C@H]1c2cccc(O)c2C(=O)C2=C(O)[C@]3(O)C(=O)C(C(N)=O)=C(O)[C@@H](N(C)C)[C@@H]3[C@@H](O)[C@@H]21.O	=	5.27
CO[C@H]1/C=C/O[C@@]2(C)Oc3c(C)c(O)c4c(O)c(c(/C=N/N5CCN(C)CC5)c(O)c4c3C2=O)NC(=O)/C(C)=C\C=C\[C@H](C)[C@H](O)[C@@H](C)[C@@H](O)[C@@H](C)[C@H](OC(C)=O)[C@@H]1C	=	5.52

---

# Run description: Tmax in patient with bronchitis at 500 mg, po twice daily for 3 days
# Condition context: human, in vivo
Property measured: Tmax at 72 h (min)

Mol	Readout unit	Result value
O=C(O)c1cn(C2CC2)c2cc(N3CCNCC3)c(F)cc2c1=O	min	36

---

# Tested on: Plasmodium falciparum
# Run description: Antimalarial activity as parasitaemia against chloroquine-sensitive ACP1-GFP-labeled Plasmodium falciparum 3D7 trophozoite infected human erythrocytes at 2xIC50 dosed 96 hrs post infection
# Assay type: functional

Mol	Readout unit	Activity
O=C(O)c1cn(C2CC2)c2cc(N3CCNCC3)c(F)cc2c1=O	%	98.6
CC[C@H]1OC(=O)[C@H](C)[C@@H](O[C@H]2C[C@@](C)(OC)[C@@H](O)[C@H](C)O2)[C@H](C)[C@@H](O[C@@H]2O[C@H](C)C[C@H](N(C)C)[C@H]2O)[C@](C)(O)C[C@@H](C)CN(C)[C@H](C)[C@@H](O)[C@]1(C)O	%	105
C[C@H]1c2cccc(O)c2C(=O)C2=C(O)[C@]3(O)C(=O)C(C(N)=O)=C(O)[C@@H](N(C)C)[C@@H]3[C@@H](O)[C@@H]21.O	%	97.2
CCC[C@@H]1C[C@@H](C(=O)N[C@@H]([C@H]2O[C@H](SC)[C@H](O)[C@@H](O)[C@H]2O)[C@H](C)Cl)N(C)C1	%	99.3

---

The entries below come with measured IC50 values attached.
# Tested on: Plasmodium falciparum
# Run description: Antimalarial activity as 2nd generation ring-stage chloroquine-resistant Plasmodium falciparum W2 after 48 hrs by flow cytometry
# Format: functional, organism-based
# Condition context: W2, 48 h

Mol	Readout unit	Result modifier	IC50
CCC[C@@H]1C[C@@H](C(=O)N[C@@H]([C@H]2O[C@H](SC)[C@H](O)[C@@H](O)[C@H]2O)[C@H](C)Cl)N(C)C1	µM	>	100
O=C(O)c1cn(C2CC2)c2cc(N3CCNCC3)c(F)cc2c1=O	µM	=	24.9
CO[C@H]1/C=C/O[C@@]2(C)Oc3c(C)c(O)c4c(O)c(c(/C=N/N5CCN(C)CC5)c(O)c4c3C2=O)NC(=O)/C(C)=C\C=C\[C@H](C)[C@H](O)[C@@H](C)[C@@H](O)[C@@H](C)[C@H](OC(C)=O)[C@@H]1C	µM	=	0.274
CC[C@H]1OC(=O)[C@H](C)[C@@H](O[C@H]2C[C@@](C)(OC)[C@@H](O)[C@H](C)O2)[C@H](C)[C@@H](O[C@@H]2O[C@H](C)C[C@H](N(C)C)[C@H]2O)[C@](C)(O)C[C@@H](C)CN(C)[C@H](C)[C@@H](O)[C@]1(C)O	µM	=	1.46
C[C@H]1c2cccc(O)c2C(=O)C2=C(O)[C@]3(O)C(=O)C(C(N)=O)=C(O)[C@@H](N(C)C)[C@@H]3[C@@H](O)[C@@H]21.O	µM	=	3.3

---

# System: Plasmodium falciparum
# Run description: Antimalarial activity as abnormal apicoplast morphology in chloroquine-sensitive ACP1-GFP-labeled Plasmodium falciparum 3D7 trophozoite infected human erythrocytes at 2xIC50 dosed 96 hrs post infection
# Format: functional
The entries below come with measured Activity values attached.

Compound	Activity
CCC[C@@H]1C[C@@H](C(=O)N[C@@H]([C@H]2O[C@H](SC)[C@H](O)[C@@H](O)[C@H]2O)[C@H](C)Cl)N(C)C1 [CLINDAMYCIN]	85.2%
O=C(O)c1cn(C2CC2)c2cc(N3CCNCC3)c(F)cc2c1=O [CIPROFLOXACIN]	81.4%
CC[C@H]1OC(=O)[C@H](C)[C@@H](O[C@H]2C[C@@](C)(OC)[C@@H](O)[C@H](C)O2)[C@H](C)[C@@H](O[C@@H]2O[C@H](C)C[C@H](N(C)C)[C@H]2O)[C@](C)(O)C[C@@H](C)CN(C)[C@H](C)[C@@H](O)[C@]1(C)O [AZITHROMYCIN]	83.4%
C[C@H]1c2cccc(O)c2C(=O)C2=C(O)[C@]3(O)C(=O)C(C(N)=O)=C(O)[C@@H](N(C)C)[C@@H]3[C@@H](O)[C@@H]21.O [DOXYCYCLINE]	83.6%

---

# Run description: Tmax in human at 1000 mg, po once daily for 3 days
# Type: ADME, organism-based
# Condition context: in vivo

Molecule	Readout unit	Tmax
CC[C@H]1OC(=O)[C@H](C)[C@@H](O[C@H]2C[C@@](C)(OC)[C@@H](O)[C@H](C)O2)[C@H](C)[C@@H](O[C@@H]2O[C@H](C)C[C@H](N(C)C)[C@H]2O)[C@](C)(O)C[C@@H](C)CN(C)[C@H](C)[C@@H](O)[C@]1(C)O [AZITHROMYCIN]	h	2.4

---

# Tested on: Plasmodium falciparum
# Run description: Antimalarial activity as 3rd generation ring-stage chloroquine-resistant Plasmodium falciparum W2 after 48 hrs dose then 48 hrs drug-free
# Assay type: functional, organism-based
# Condition context: W2, 48 h, read-out: IC50
pIC50: −log10 of the molar value.

Mol	Target or system	pIC50
CC[C@H]1OC(=O)[C@H](C)[C@@H](O[C@H]2C[C@@](C)(OC)[C@@H](O)[C@H](C)O2)[C@H](C)[C@@H](O[C@@H]2O[C@H](C)C[C@H](N(C)C)[C@H]2O)[C@](C)(O)C[C@@H](C)CN(C)[C@H](C)[C@@H](O)[C@]1(C)O	Plasmodium falciparum	7.51
CCC[C@@H]1C[C@@H](C(=O)N[C@@H]([C@H]2O[C@H](SC)[C@H](O)[C@@H](O)[C@H]2O)[C@H](C)Cl)N(C)C1	Plasmodium falciparum	8.51
C[C@H]1c2cccc(O)c2C(=O)C2=C(O)[C@]3(O)C(=O)C(C(N)=O)=C(O)[C@@H](N(C)C)[C@@H]3[C@@H](O)[C@@H]21.O	Plasmodium falciparum	6.68
CO[C@H]1/C=C/O[C@@]2(C)Oc3c(C)c(O)c4c(O)c(c(/C=N/N5CCN(C)CC5)c(O)c4c3C2=O)NC(=O)/C(C)=C\C=C\[C@H](C)[C@H](O)[C@@H](C)[C@@H](O)[C@@H](C)[C@H](OC(C)=O)[C@@H]1C	Plasmodium falciparum	6.28
